Structures can show the parent of a compound that is named as a salt.
property.measured: melting point

CCCc1cc(=O)oc2cc(OCCCCN3CCC(c4noc5cc(F)ccc45)CC3)ccc12 = 139 to 141 °C
O=c1cc(-c2ccccc2)c2ccc(OCCCN3CCC(c4noc5cc(F)ccc45)CC3)cc2o1 = 185 to 187 °C
O=c1cc(CO)c2ccc(OCCCCN3CCC(c4noc5cc(F)ccc45)CC3)cc2o1 = 160 to 162 °C
O=c1cc(CO)c2ccc(OCCCN3CCC(c4noc5cc(F)ccc45)CC3)cc2o1 = 144 to 146 °C
Cc1cc(=O)oc2c(Cl)c(OCCCCN3CCN(c4nsc5ccccc45)CC3)ccc12 = 133 to 135 °C
Cc1cc(=O)oc2cc(OCCCCN3CCN(c4nsc5ccccc45)CC3)ccc12 = 110 to 112 °C
Cc1cc(=O)oc2cc(OCCCCCN3CCC(c4noc5cc(F)ccc45)CC3)ccc12 = 119 to 121 °C
CCc1cc(=O)oc2cc(OCCCCN3CCN(c4nsc5ccccc45)CC3)ccc12 = 110 to 112 °C

// batch mode: one melting point value per listed entry
1. O=c1cc(C(F)(F)F)c2ccc(OCCCCN3CCN(c4nsc5ccccc45)CC3)cc2o1
2. O=c1ccc2ccc(OCCCN3CCN(c4nsc5ccccc45)CC3)cc2o1

1: 93 to 95 °C; 2: 91 to 93 °C

// batch mode: one melting point value per listed entry
1. O=c1cc(C(F)(F)F)c2ccc(OCCCN3CCN(c4nsc5ccccc45)CC3)cc2o1 (as salt: hydrochloride)
2. Cc1cc(=O)oc2cc(OC/C=C/CN3CCC(c4noc5cc(F)ccc45)CC3)ccc12
3. O=c1cc(-c2ccccc2)c2ccc(OCCCCN3CCN(c4nsc5ccccc45)CC3)cc2o1
4. Cc1cc(=O)oc2c(Cl)c(OCCCN3CCN(c4nsc5ccccc45)CC3)ccc12
5. O=c1ccc2ccc(OCCCCN3CCN(c4nsc5ccccc45)CC3)cc2o1 (as salt: hydrochloride)

1. 103 to 105 °C
2. 129 to 130 °C
3. 116 to 118 °C
4. 162 to 164 °C
5. 103 to 105 °C

For the compound O=c1cc(C(F)(F)F)c2ccc(OCCCN3CCC(c4noc5cc(F)ccc45)CC3)cc2o1 , what melting point is on record?
146 to 148 °C
